The following binders are shown together with reported OD450 nm values.
- assay.system: monkey GPC3-His protein (monkey)
- method.summary: ELISA, monkey GPC3-His coated; antibody 66.66 nM
Give the value as a plain number.

hAb006LH2L1a (antibody, human IgG1, V domains shown) VH: EVQLVQSGAEVKKPGSSVKVSCKASGYTFTDYEIHWVRQAPGQGLEWMGAIDPKTGNTAYNQKFMGRVTITADKSTSTAYMELSSLRSEDTAVYYCTRYFSFAYWGQGTLVTVSS VL: DIVMTQTPLSLPVTPGEPASISCRSSQTFVHSDGNTYLQWYLQKPGQSPQLLIYKVSNRFSGVPDRFSGSGSGTDFTLKISRVEAEDVGVYYCFQGSHVPYTFGQGTKLEIK = 2.06
hAb006LH3L1a (antibody, human IgG1, V domains shown) VH: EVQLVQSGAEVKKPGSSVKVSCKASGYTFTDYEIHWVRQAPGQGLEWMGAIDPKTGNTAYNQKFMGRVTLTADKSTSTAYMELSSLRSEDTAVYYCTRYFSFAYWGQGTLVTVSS VL: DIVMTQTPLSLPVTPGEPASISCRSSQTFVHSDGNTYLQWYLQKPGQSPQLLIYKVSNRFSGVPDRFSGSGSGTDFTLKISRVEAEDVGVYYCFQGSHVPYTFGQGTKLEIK = 2.18
hAb003LH3L1a (antibody, human IgG1, V domains shown) VH: EVQLVQSGAEVKKPGSSVKVSCKASGYRFTDYEMHWVRQAPGQGLEWMGTIDPETGNTAYTQKFMDRVTLTADKSTSTAYMELSSLRSEDTAVYYCTRGYSFTYWGQGTLVTVSS VL: DIVMTQTPLSLPVTPGEPASISCRSSQNIVHSDGNTYLQWYLQKPGQSPQLLIFKVSNRFSGVPDRFSGSGSGTDFTLKISRVEAEDVGVYYCFQGSHVPFTFGQGTKLEIK = 2.39

# next binder below
I have this binder here, hAb003LH2L1a (antibody, human IgG1, V domains shown) VH: EVQLVQSGAEVKKPGSSVKVSCKASGYRFTDYEMHWVRQAPGQGLEWMGTIDPETGNTAYTQKFMDRVTITADKSTSTAYMELSSLRSEDTAVYYCTRGYSFTYWGQGTLVTVSS VL: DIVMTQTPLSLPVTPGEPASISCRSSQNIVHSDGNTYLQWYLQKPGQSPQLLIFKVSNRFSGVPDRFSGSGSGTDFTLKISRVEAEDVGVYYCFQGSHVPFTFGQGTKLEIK , and I need its recorded OD450 nm.
2.23
